As shown below, each of these compounds has a reported hERG IC20 / TLR8 IC50 value.
Target: hERG channel (Homo sapiens, UniProt Q12809)
Construct: expressed in transfected cells; host or cells: CHO (Chinese hamster ovary)
Sequence (Q12809 whole entry): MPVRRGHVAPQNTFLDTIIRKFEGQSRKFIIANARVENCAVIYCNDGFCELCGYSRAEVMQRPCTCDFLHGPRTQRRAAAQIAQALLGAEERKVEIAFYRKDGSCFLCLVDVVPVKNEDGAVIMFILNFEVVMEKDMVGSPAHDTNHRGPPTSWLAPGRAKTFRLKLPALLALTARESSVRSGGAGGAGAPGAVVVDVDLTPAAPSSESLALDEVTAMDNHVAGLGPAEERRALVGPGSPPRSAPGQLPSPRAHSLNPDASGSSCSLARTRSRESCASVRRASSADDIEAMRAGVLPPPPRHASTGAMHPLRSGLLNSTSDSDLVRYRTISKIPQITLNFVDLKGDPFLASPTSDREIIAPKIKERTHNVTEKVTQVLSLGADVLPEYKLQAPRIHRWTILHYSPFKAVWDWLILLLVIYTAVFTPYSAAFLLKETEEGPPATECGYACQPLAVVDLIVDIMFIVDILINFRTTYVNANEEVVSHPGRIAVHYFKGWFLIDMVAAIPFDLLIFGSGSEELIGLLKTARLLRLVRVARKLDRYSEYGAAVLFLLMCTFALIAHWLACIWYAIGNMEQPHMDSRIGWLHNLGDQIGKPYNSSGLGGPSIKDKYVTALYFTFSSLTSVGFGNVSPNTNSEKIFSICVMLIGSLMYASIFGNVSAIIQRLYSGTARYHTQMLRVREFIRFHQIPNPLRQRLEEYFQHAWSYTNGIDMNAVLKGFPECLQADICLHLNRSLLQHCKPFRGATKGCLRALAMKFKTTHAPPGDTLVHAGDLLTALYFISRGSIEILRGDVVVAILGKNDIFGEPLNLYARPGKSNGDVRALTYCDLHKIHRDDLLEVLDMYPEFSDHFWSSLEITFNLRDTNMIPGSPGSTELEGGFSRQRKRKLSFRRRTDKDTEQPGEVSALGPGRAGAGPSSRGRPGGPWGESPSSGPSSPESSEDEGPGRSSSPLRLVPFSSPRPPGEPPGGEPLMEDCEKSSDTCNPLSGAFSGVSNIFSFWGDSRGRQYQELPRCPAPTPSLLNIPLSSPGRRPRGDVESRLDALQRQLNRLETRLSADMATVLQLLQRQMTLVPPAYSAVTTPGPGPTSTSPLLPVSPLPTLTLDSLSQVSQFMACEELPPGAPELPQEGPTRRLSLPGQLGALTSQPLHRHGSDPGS
Test: hERG channel inhibition assay (patch-clamp, CHO hERG cells)
Format: cell-based
Settings: safety ratio
measurement_kind: hERG IC20 / TLR8 IC50

C[C@@H]1CN(c2ccc(C#N)c3ncccc23)C[C@H](CN2CCN(c3cnc4c(c3)CNCC4)CC2)O1
>1098.9
C[C@@H]1Cc2cc(N3CCN(C[C@H]4CN(c5ccc(C#N)c6ncccc56)C[C@@H](C)O4)CC3)ncc2CN1 (single isomer, unassigned)
>2439.0
C[C@@H]1CN(c2ccc(C#N)c3nccnc23)C[C@H](CN2CCN(c3cnc4c(c3)CNC4)CC2)O1
>584.8
C[C@@H]1CN(c2ccc(C#N)c3ncccc23)C[C@H](CN2CCN(c3ccc4c(c3)CNC4)CC2)O1
194.6
C[C@@H]1CN(c2ccc(C#N)c3ncccc23)C[C@H](CN2CCN(c3cc4c(cn3)CNCC4)CC2)O1
>2283.1
C[C@@H]1CN(c2ccc(C#N)c3ncccc23)C[C@H](CN2CCN(c3cnc4c(c3)CCNC4)CC2)O1
>934.6
C[C@@H]1CN(c2ccc(C#N)c3ncccc23)C[C@H](CN2CCN(c3ccc4c(c3)CNCC4)CC2)O1
410.5
CC1NCc2ncc(N3CCN(C[C@H]4CN(c5ccc(C#N)c6ncccc56)C[C@@H](C)O4)CC3)cc21 (some centres unmarked)
>574.7
C[C@@H]1CN(c2ccc(C#N)c3ncccc23)C[C@H](CN2CCN(c3cc4c(cn3)CCNC4)CC2)O1
>1666.7
C[C@@H]1CN(c2ccc(C#N)c3ncccc23)C[C@H](CN2CCN(c3ccc4c(n3)CNC4)CC2)O1
>1515.2
C[C@@H]1CN(c2ccc(C#N)c3ncccc23)C[C@H](CN2CCN(c3ccc4c(n3)CNCC4)CC2)O1
1879.8
C[C@@H]1CN(c2ccc(C#N)c3ncccc23)C[C@H](CN2CCN(c3ccc4c(n3)CCNC4)CC2)O1
1725.4
C[C@@H]1CN(c2ccc(C#N)c3ncccc23)C[C@H](CN2CCN(c3cc4c(cn3)CCN[C@@H]4C)CC2)O1 (single isomer, unassigned)
>2857.1
C[C@@H]1CN(c2ccc(C#N)c3ncsc23)C[C@H](CN2CCN(c3cnc4c(c3)CNC4)CC2)O1
>3333.3
C[C@@H]1Cc2cnc(N3CCN(C[C@H]4CN(c5ccc(C#N)c6ncccc56)C[C@@H](C)O4)CC3)cc2CN1 (single isomer, unassigned)
>1515.2
COc1ccc(N2CCN(C[C@H]3CN(c4ccc(C#N)c5ncccc45)C[C@@H](C)O3)CC2)cc1 [Example R1, reference compound]
6.2
C[C@@H]1CN(c2ccc(C#N)c3ncccc23)C[C@H](CN2CCN(c3ccc4c(c3)CN(CCO)C4)CC2)O1
>1000.0
C[C@@H]1CN(c2ccc(C#N)c3ncccc23)C[C@H](CN2CCN(c3cc4c(cn3)C[C@H](C)NC4)CC2)O1 (single isomer, unassigned)
>1960.8
C[C@@H]1CN(c2ccc(C#N)c3ncccc23)C[C@H](CN2CCN(c3ccc(Cl)cc3)CC2)O1 [Example R2, reference compound]
0.8
C[C@@H]1CN(c2ccc(C#N)c3ncccc23)C[C@H](CN2CCN(c3ccc4c(c3)CCNC4)CC2)O1
>497.5
C[C@@H]1CN(c2ccc(C#N)c3ncccc23)C[C@H](CN2CCN(c3ccc4c(c3)C(O)CNC4)CC2)O1 (some centres unmarked)
>520.8
C[C@@H]1CN(c2ccc(C#N)c3ncccc23)C[C@H](CN2CCN(c3cnc4c(c3)CNC4)CC2)O1
>442.5
C[C@@H]1CN(c2ccc(C#N)c3ncccc23)C[C@H](CN2CC3(C2)CN(c2cnc4c(n2)CCNC4)CCO3)O1
>3125.0
